Where do the numbers come from? From the supplement of paper PMC10567573.

B1: MATN2 (parent)
chain: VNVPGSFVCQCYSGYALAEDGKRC

# Variants of: B1
# MEASUREMENT PROTOCOL: protein stability index of a GFP-peptide fusion (GPS, HEK-293T) (PSI 1-6); higher = more stable;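 note: lentivirally expressed fusions sorted by FACS into six bins by GFP to DsRed ratio, PSI derived from sequencing read proportions per bin multiplied by bin number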
# SETTINGS: c terminus: a fixed tail appended
ASSAY READOUT: protein stability index

> print(dat)
     var  experimental.value
 1  Y15T                2.33
 2  L17P                2.46
 3  C11N                2.97
 4   V3Y                2.52
 5   S6R                3.39
 6  C24D                2.32
 7   V3E                1.19
 8  K22F                1.81
 9  S13C                3.25
10  Y12D                4.36
11   V1A                2.14
12   G5S                1.91
13  A16C                3.35
14  Y12K                1.96
15   V8S                3.19
16  A16N                1.45
17   G5D                2.06
18  A16T                1.93
19  G14D                1.95
20  Q10M                2.88
21   V8Y                3.01
